Test system: Human immunodeficiency virus type 1 (RF/HAT ISOLATE)
Assay: Reduction in HIV viral RNA concentration by 90% in MT-2 cells infected with HIV-1RF.
Format: functional
Conditions: Human immunodeficiency virus 1, RF, MT2
PROPERTY: IC90 (µM)

compound_structure=O=C1N(Cc2ccc(CO)cc2)[C@H](CCc2ccccc2)[C@@H](O)[C@@H](Cc2ccccc2)N1Cc1ccc(CO)cc1 assayed_target="Human immunodeficiency virus type 1 (RF/HAT ISOLATE)" value_unit=µM qualifier_sign== measured_value=3.6
compound_structure=N=C(NO)c1cccc(CN2C(=O)N(Cc3cccc(/C(N)=N\O)c3)[C@@H](CCc3ccccc3)[C@H](O)[C@@H]2Cc2ccccc2)c1 assayed_target="Human immunodeficiency virus type 1 (RF/HAT ISOLATE)" value_unit=µM qualifier_sign=> measured_value=5
compound_structure=N#Cc1cccc(CN2C(=O)N(Cc3cccc(C#N)c3)[C@@H](Cc3ccccc3)[C@@H](O)[C@@H]2CCc2ccccc2)c1 assayed_target="Human immunodeficiency virus type 1 (RF/HAT ISOLATE)" value_unit=µM qualifier_sign=> measured_value=5
compound_structure=O=C1N(CC2CC2)[C@H](CCc2ccccc2)[C@@H](O)[C@@H](Cc2ccccc2)N1CC1CC1 assayed_target="Human immunodeficiency virus type 1 (RF/HAT ISOLATE)" value_unit=µM qualifier_sign== measured_value=5.2
compound_structure=O=C1N(Cc2ccccc2)[C@H](CCc2ccccc2)[C@@H](O)[C@@H](Cc2ccccc2)N1Cc1ccccc1 assayed_target="Human immunodeficiency virus type 1 (RF/HAT ISOLATE)" value_unit=µM qualifier_sign== measured_value=2.8
compound_structure=Nc1cccc(CN2C(=O)N(Cc3cccc(N)c3)[C@H](Cc3ccccc3)[C@H](O)[C@H]2CCc2ccccc2)c1 assayed_target="Human immunodeficiency virus type 1 (RF/HAT ISOLATE)" value_unit=µM qualifier_sign== measured_value=0.365
compound_structure=N#Cc1cccc(CN2C(=O)N(Cc3cccc(C#N)c3)[C@H](Cc3ccccc3)[C@H](O)[C@H]2CCc2ccccc2)c1 assayed_target="Human immunodeficiency virus type 1 (RF/HAT ISOLATE)" value_unit=µM qualifier_sign== measured_value=1.6

* * *

compounds and their reported Ki
Target: Human immunodeficiency virus type 1 protease (Human immunodeficiency virus 1, UniProt Q72874)
PROPERTY: Ki (nM)

compound_structure=COC(=O)c1cccc(CN2C(=O)C(=O)N(Cc3cccc(C(=O)OC)c3)[C@H](Cc3ccccc3)[C@H](O)[C@H]2CCc2ccccc2)c1 value_unit=nM measured_value=40
compound_structure=O=C1N(Cc2ccc(CO)cc2)[C@H](CCc2ccccc2)[C@@H](O)[C@@H](Cc2ccccc2)N1Cc1ccc(CO)cc1 value_unit=nM measured_value=2.5
compound_structure=CNc1cccc(CN2C(=O)N(Cc3cccc(NC)c3)[C@H](Cc3ccccc3)[C@H](O)[C@H]2CCc2ccccc2)c1 value_unit=nM measured_value=4.9
compound_structure=Nc1cccc(CN2C(=O)N(Cc3cccc(N)c3)[C@H](Cc3ccccc3)[C@H](O)[C@H]2CCc2ccccc2)c1 value_unit=nM measured_value=1.7

* * *

Below are pKi values recorded for Human immunodeficiency virus type 1 protease (Human immunodeficiency virus 1).
pKi: −log10 of the molar value.
PROPERTY: pKi

compound_structure=O=C1N(Cc2cccc(O)c2)[C@H](CCc2ccccc2)[C@@H](O)[C@@H](Cc2ccccc2)N1Cc1cccc(O)c1 measured_value=9.52
compound_structure=O=C1N(Cc2ccccc2)[C@H](CCc2ccccc2)[C@@H](O)[C@@H](Cc2ccccc2)N1Cc1ccccc1 measured_value=7.82
compound_structure=Nc1ccc(CN2C(=O)N(Cc3ccc(N)c(F)c3)[C@H](Cc3ccccc3)[C@H](O)[C@H]2CCc2ccccc2)cc1F measured_value=8.10
